# TESTED_SYSTEM: full-length HAQ STING (Homo sapiens, UniProt Q86WV6, G230A/H232R/R293Q/R71H)
# Construct: AviTag (after GG linker) (C); HRV3C cleavage site (after GS linker) (C); HIS8 (C); made in house; host or cells: Trichoplusia ni (Hi-Five) insect cells infected with baculovirus (virus generated and amplified in Sf21 cells); used as a washed membrane preparation
# Sequence (Q86WV6 with tags, fused parts or gaps R71H/G230A/H232R/R293Q): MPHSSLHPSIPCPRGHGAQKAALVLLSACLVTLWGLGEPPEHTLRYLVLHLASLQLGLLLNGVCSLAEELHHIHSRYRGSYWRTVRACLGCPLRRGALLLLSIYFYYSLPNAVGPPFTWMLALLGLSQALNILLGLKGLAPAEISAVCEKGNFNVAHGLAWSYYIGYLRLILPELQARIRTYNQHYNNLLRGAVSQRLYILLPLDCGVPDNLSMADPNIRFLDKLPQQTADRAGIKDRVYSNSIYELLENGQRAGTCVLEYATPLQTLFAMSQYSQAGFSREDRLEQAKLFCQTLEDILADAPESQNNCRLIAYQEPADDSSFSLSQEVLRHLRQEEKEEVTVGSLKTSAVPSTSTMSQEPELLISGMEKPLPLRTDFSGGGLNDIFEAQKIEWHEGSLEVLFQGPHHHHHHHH
# ASSAY_DETAILS: 3H-cGAMP filtration binding assay (HAQ STING)
# TEST_CONTEXT: competition with tritiated cGAMP, HAQ STING membrane
# Source text: The ability of compounds to bind STING is quantified by the ability to compete with tritiated cGAMP ligand for human STING receptor membrane using a radioactive filter-binding assay. […] The ability of compounds to bind STING is quantified by their ability to compete with tritiated cGAMP ligand for human STING receptor membrane using a radioactive filter-binding assay. […]
Kindly state EC50 for each of the entries shown.
Kindly provide the numeric value in nM only, without the unit symbol.

Lookup: Please report the recorded EC50 for COc1cc2sc(CC[C@H](C)C(=O)O)cc2c(Cl)c1OCCOc1c(OC)cc2sc(C(=O)C[C@H](C)C(=O)O)cc2c1Cl .
Found: 694

Lookup: Please report the recorded EC50 for COc1cc2sc(CC[C@H](C)C(=O)O)cc2cc1OCCCOc1c(O)cc2sc(C(=O)C[C@H](C)C(=O)O)cc2c1Cl .
Found: 353

Lookup: Please report the recorded EC50 for COc1cc2cc(C(=O)CCC(=O)O)sc2cc1OCCCOc1cc2sc(C(=O)CCC(=O)O)cc2cc1OC .
Found: 16

Lookup: Please report the recorded EC50 for COc1cc2sc(C(=O)CCC(=O)O)cc2cc1OCCCOc1c(OC)cc2sc(C(=O)C[C@H](C)C(=O)O)cc2c1F .
Found: 1

Lookup: Please report the recorded EC50 for COc1cc2sc(C(=O)CCC(=O)O)cc2nc1CCOc1nc2cc(C(=O)CCC(=O)O)sc2cc1OC .
Found: 12

Lookup: Please report the recorded EC50 for COc1cc2sc(C(=O)C[C@H](C)C(=O)O)cc2cc1CCCOc1nc2cc(C(=O)C[C@H](C)C(=O)O)sc2cc1OC .
Found: 22

Lookup: Please report the recorded EC50 for COc1cc2sc(C(=O)CCC(=O)O)cc2c(F)c1OCCCCCOc1c(OC)cc2sc(C(=O)C[C@H](C)C(=O)O)cc2c1F .
Found: 60

----------
# TESTED_SYSTEM: full-length WT STING (Homo sapiens, UniProt Q86WV6, H232R)
# Construct: AviTag (after gg linker) (C); HRV3C cleavage site (after gs linker) (C); HIS8 (C); made in house; host or cells: Trichoplusia ni (Hi-Five) insect cells infected with baculovirus (virus generated and amplified in Sf21 cells); used as a washed membrane preparation
# Sequence (Q86WV6 with tags, fused parts or gaps H232R): as the sequence (Q86WV6 with tags, fused parts or gaps R71H/G230A/H232R/R293Q) above, with H71R, A230G, Q293R counted along it
# ASSAY_DETAILS: 3H-cGAMP filtration binding assay (WT STING)
# TEST_CONTEXT: competition with tritiated cGAMP, WT STING membrane
EC50 under 5 nM gets label 1, anything at or over 5 nM gets label 0.

Lookup: Say whether its EC50 is strictly beneath 5 nM. Entry: COc1cc2sc(C(=O)C[C@H](C)C(=O)O)cc2cc1CCOc1cc2cc(C(=O)C[C@H](C)C(=O)O)sc2cc1OC
Found: label 0

Lookup: Say whether its EC50 is strictly beneath 5 nM. Entry: COc1cc2sc(C(=O)C[C@H](C)C(=O)O)cc2c(F)c1OCCCOc1c(O)cc2sc(C(=O)C[C@H](C)C(=O)O)cc2c1Cl
Found: label 1

Lookup: Say whether its EC50 is strictly beneath 5 nM. Entry: COc1cc2cc(C(=O)C[C@H](C)C(=O)O)sc2cc1OCCCOc1c(OC)cc2sc(C(=O)CCC(=O)O)cc2c1F
Found: label 1

Lookup: Say whether its EC50 is strictly beneath 5 nM. Entry: COc1cc2sc(C(=O)C[C@H](C)C(=O)O)cc2cc1CCCOc1c(OC)cc2sc(C(=O)CCC(=O)O)cc2c1F
Found: label 1

Lookup: Say whether its EC50 is strictly beneath 5 nM. Entry: COc1cc2sc(C(=O)CCC(=O)O)cc2cc1OCCOc1nc2cc(C(=O)C[C@H](C)C(=O)O)sc2cc1OC
Found: label 0

Lookup: Say whether its EC50 is strictly beneath 5 nM. Entry: COc1cc2cc(C(=O)C[C@H](C)C(=O)O)sc2cc1OCCCOc1ccc2sc(C(=O)CCC(=O)O)cc2c1
Found: label 0

Lookup: Say whether its EC50 is strictly beneath 5 nM. Entry: COc1cc2sc(C(=O)CCC(=O)O)cc2cc1CCCNc1nc2cc(C(=O)CCC(=O)O)sc2cc1OC
Found: label 0

Lookup: Say whether its EC50 is strictly beneath 5 nM. Entry: COc1cc2sc(C(=O)C[C@H](C)C(=O)O)cc2cc1CCCOc1cc2cc(C(=O)C[C@H](C)C(=O)O)sc2cc1OC
Found: label 0

Lookup: Say whether its EC50 is strictly beneath 5 nM. Entry: COc1cc2sc(C(=O)C[C@H](C)C(=O)O)cc2cc1OCCOc1cc2sc(C(=O)C[C@H](C)C(=O)O)cc2cc1OC (racemic)
Found: label 0

----------
# TESTED_SYSTEM: full-length HAQ STING (Homo sapiens, UniProt Q86WV6, G230A/H232R/R293Q/R71H)
# Construct: AviTag (after GG linker) (C); HRV3C cleavage site (after GS linker) (C); HIS8 (C); made in house; host or cells: Trichoplusia ni (Hi-Five) insect cells infected with baculovirus (virus generated and amplified in Sf21 cells); used as a washed membrane preparation
# ASSAY_DETAILS: 3H-cGAMP filtration binding assay (HAQ STING)
# TEST_CONTEXT: competition with tritiated cGAMP, HAQ STING membrane
Classify on EC50 using lower range: < 10 nM; middle range: ≥ 10 nM and < 200 nM; upper range: ≥ 200 nM

Lookup: Pick a category. Item: COc1cc2sc(C(=O)C[C@H](C)C(=O)O)cc2c(Cl)c1OCCCOc1c(OC)cc2sc(C(=O)C[C@H](C)C(=O)O)cc2c1Br [Example 133]
Found: middle range

Lookup: Pick a category. Item: COc1cc2sc(C(=O)C[C@H](C)C(=O)O)cc2c(F)c1OCCCOc1c(OC)cc2sc(C(=O)C[C@H](C)C(=O)O)cc2c1Cl [Example 122]
Found: lower range

Lookup: Pick a category. Item: COc1cc2sc(C(=O)C[C@H](C)C(=O)O)cc2c(Cl)c1OCCCCOc1c(OC)cc2sc(C(=O)C[C@H](C)C(=O)O)cc2c1Cl [Example 172]
Found: upper range

Lookup: Pick a category. Item: COc1cc2sc(C(=O)C[C@H](C)C(=O)O)cc2c(F)c1OCCCOc1cc2sc(C(=O)C[C@H](C)C(=O)O)cc2nc1OC [Example 167]
Found: lower range

Lookup: Pick a category. Item: COc1cc2sc(C(=O)[C@H]3C[C@@H]3C(=O)O)cc2c(F)c1OCCCOc1c(OC)cc2sc(C(=O)[C@@H]3C[C@H]3C(=O)O)cc2c1F [Example 87]
Found: middle range

Lookup: Pick a category. Item: COc1cc2sc(C(=O)C[C@H](C)C(=O)O)cc2cc1OCCOc1c(OC)cc2sc(C(=O)C[C@H](C)C(=O)O)cc2c1F [Example 67]
Found: middle range

Lookup: Pick a category. Item: COc1cc2sc(C(=O)CCC(=O)O)cc2cc1OCCOc1ccc2sc(C(=O)CCC(=O)O)cc2c1 [Example 11]
Found: upper range

Lookup: Pick a category. Item: COc1cc2sc(C(=O)C[C@H](C)C(=O)O)cc2cc1CCCc1cc2cc(C(=O)C[C@H](C)C(=O)O)sc2cc1OC [Example 2]
Found: lower range

Lookup: Pick a category. Item: COc1cc2sc(C(=O)C[C@H](C)C(=O)O)cc2c(F)c1OCCCOc1c(OC)cc2sc(CC[C@H](C)C(=O)O)cc2c1Cl [Example 151]
Found: middle range

Lookup: Pick a category. Item: COc1cc2sc(C[C@@H]3CC[C@H]3C(=O)O)cc2c(F)c1OCCCCOc1c(OC)cc2sc(C(=O)C[C@H](C)C(=O)O)cc2c1F [Example 136]
Found: upper range

Lookup: Pick a category. Item: COc1cc2sc(C(=O)CCC(=O)O)cc2nc1OCCCc1ccc2sc(C(=O)CCC(=O)O)cc2c1 [Example 4]
Found: lower range

Lookup: Pick a category. Item: COc1cc2sc(C(=O)CCC(N)=O)cc2cc1CCCc1cc2cc(C(=O)CCC(=O)O)sc2cc1OC [Example 30]
Found: upper range

Lookup: Pick a category. Item: COc1cc2sc(C(=O)CCC(=O)O)cc2c(F)c1OCCCCCOc1c(OC)cc2sc(C(=O)[C@@H]3CC[C@H]3C(=O)O)cc2c1F (stereo in doubt) [Example 119]
Found: upper range

Lookup: Pick a category. Item: COc1cc2sc(C(=O)C[C@H](C)C(=O)O)cc2c(Cl)c1OCCCOc1c(OC)cc2sc(C(=O)C[C@H](C)C(=O)O)cc2c1Cl [Example 132]
Found: lower range

Lookup: Pick a category. Item: COc1cc2sc(C(=O)C[C@H](C)C(=O)O)cc2c(F)c1OCCCCOc1c(OC)cc2sc(C(=O)C[C@H](C)C(=O)O)cc2c1Br [Example 131]
Found: middle range

Lookup: Pick a category. Item: COc1cc2sc(C(=O)C[C@H](C)C(=O)O)cc2nc1OCCCc1c(OC)cc2sc(C(=O)C[C@H](C)C(=O)O)cc2c1F [Example 159]
Found: lower range

Lookup: Pick a category. Item: COc1cc2sc(C(=O)C[C@H](C)C(=O)O)cc2c(F)c1OCCCOc1c(OC)c(Cl)c2sc(C(=O)C[C@H](C)C(=O)O)cc2c1Cl [Example 137]
Found: middle range

Lookup: Pick a category. Item: COc1cc2sc(C(=O)C[C@H](C)C(=O)O)cc2cc1OCCCOc1c(OC)cc2sc(CC[C@H](C)C(=O)O)cc2c1Cl [Example 150]
Found: upper range

Lookup: Pick a category. Item: COc1cc2sc(C(=O)CCC(=O)O)cc2cc1OCCCc1c(OC)cc2sc(C(=O)C[C@H](C)C(=O)O)cc2c1F [Example 161]
Found: lower range

Lookup: Pick a category. Item: COc1cc2sc(C(=O)C[C@H](C)C(=O)O)cc2c(F)c1OC(C)CCC(C)Oc1c(OC)cc2sc(C(=O)C[C@H](C)C(=O)O)cc2c1F (stereo partly shown) [Example 140]
Found: upper range
